Experiment: Obeticholic acid solubility in various test solutions
Format: physicochemical
Details: water; read-out: Dissolved concentration
measured.attribute: solubility (µg/mL)
The response must be a number in µg/mL with no trailing unit.

Could you tell me which solubility is on file for CC[C@H]1[C@@H](O)[C@@H]2[C@H](CC[C@]3(C)[C@@H]([C@H](C)CCC(=O)O)CC[C@@H]23)[C@@]2(C)CC[C@@H](O)C[C@@H]12 ?
21.4

----------
Test: Obeticholic acid solubility in various test solutions
Assay type: physicochemical
Conditions: aqueous buffer; pH 5.0 McIlvaine buffer; read-out: Dissolved concentration
measured.attribute: solubility (µg/mL)
The response must be a number in µg/mL with no trailing unit.

Could you tell me which solubility is on file for CC[C@H]1[C@@H](O)[C@@H]2[C@H](CC[C@]3(C)[C@@H]([C@H](C)CCC(=O)O)CC[C@@H]23)[C@@]2(C)CC[C@@H](O)C[C@@H]12 [Obeticholic acid] ?
11.4

----------
Assay: Obeticholic acid solubility in various test solutions
Assay type: physicochemical
Settings: aqueous buffer; pH 3.0 McIlvaine buffer; read-out: Dissolved concentration
measured.attribute: solubility
The reply must contain the numeric value and, after it, the unit.

Could you tell me which solubility is on file for CC[C@H]1[C@@H](O)[C@@H]2[C@H](CC[C@]3(C)[C@@H]([C@H](C)CCC(=O)O)CC[C@@H]23)[C@@]2(C)CC[C@@H](O)C[C@@H]12 ?
4.43 µg/mL

----------
Assay: Obeticholic acid solubility in various test solutions
Assay type: physicochemical
Conditions: JP2, pH 6.8, aqueous buffer; read-out: Dissolved concentration
measured.attribute: solubility

Could you tell me which solubility is on file for CC[C@H]1[C@@H](O)[C@@H]2[C@H](CC[C@]3(C)[C@@H]([C@H](C)CCC(=O)O)CC[C@@H]23)[C@@]2(C)CC[C@@H](O)C[C@@H]12 ?
306 µg/mL

src = patent US11413295B2
